Values from ChEMBL document CHEMBL3593227

- METHOD: Inhibition of AMPA receptor in rat hippocampal neurons assessed as inhibition of AMPA-evoked current by whole-cell voltage-clamp method in presence of receptor desensitization inhibitor cyclothiazide
- Assay type: tissue-based
- CONDITION LABEL: Hippocampus
QUANTITY MEASURED: IC50

Consider the molecule shown here: `C[C@H]1CC[C@H]2[C@@H]3CC[C@@H]4C[C@H](OS(=O)(=O)O)CC[C@]4(C)[C@H]3CC[C@]12C.c1ccncc1` What is its recorded IC50?
9.5 µM

----------
- TESTED SYSTEM: Glutamate NMDA receptor; GRIN1/GRIN2B (Homo sapiens, UniProt Q05586+Q13224)
- Sequence (Q13224 whole entry, other chains not shown): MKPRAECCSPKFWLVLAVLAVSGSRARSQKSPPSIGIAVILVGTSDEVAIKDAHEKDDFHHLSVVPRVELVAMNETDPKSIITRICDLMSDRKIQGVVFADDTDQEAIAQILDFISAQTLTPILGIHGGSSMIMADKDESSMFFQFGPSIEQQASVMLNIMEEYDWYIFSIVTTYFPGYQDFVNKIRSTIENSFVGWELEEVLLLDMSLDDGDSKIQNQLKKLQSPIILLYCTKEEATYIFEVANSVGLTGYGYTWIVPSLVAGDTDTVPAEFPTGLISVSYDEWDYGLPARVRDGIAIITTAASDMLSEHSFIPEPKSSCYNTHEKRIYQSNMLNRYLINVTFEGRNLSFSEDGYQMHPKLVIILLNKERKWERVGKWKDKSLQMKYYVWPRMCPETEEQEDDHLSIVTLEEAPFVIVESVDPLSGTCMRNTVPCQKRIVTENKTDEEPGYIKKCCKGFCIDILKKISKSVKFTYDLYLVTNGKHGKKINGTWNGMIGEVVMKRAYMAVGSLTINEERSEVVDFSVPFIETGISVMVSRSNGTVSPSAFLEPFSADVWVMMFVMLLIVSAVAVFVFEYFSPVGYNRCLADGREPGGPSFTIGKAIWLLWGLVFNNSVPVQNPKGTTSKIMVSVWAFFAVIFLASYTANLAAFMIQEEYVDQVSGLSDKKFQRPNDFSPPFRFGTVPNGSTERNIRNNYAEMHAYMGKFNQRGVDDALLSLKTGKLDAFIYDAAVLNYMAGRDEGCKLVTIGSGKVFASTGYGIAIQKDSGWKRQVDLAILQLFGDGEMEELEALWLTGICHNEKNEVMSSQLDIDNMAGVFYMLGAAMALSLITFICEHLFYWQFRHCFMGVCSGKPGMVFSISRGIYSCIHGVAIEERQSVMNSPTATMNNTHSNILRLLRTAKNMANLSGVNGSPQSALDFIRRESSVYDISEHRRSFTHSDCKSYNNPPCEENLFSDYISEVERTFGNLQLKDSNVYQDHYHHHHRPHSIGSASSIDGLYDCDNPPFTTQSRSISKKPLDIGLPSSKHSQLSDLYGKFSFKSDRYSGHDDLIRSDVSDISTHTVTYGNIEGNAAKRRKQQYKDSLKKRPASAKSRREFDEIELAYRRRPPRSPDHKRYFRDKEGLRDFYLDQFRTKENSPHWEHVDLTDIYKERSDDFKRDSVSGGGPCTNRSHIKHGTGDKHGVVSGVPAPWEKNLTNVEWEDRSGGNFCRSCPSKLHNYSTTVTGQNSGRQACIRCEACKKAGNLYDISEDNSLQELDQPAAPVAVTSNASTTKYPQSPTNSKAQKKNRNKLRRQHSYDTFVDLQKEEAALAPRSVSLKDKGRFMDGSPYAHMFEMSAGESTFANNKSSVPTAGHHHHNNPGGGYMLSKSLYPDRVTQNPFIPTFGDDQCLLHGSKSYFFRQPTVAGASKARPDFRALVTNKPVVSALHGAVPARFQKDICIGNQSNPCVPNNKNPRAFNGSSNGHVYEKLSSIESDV
- METHOD: Inhibition of recombinant GluN1/GluN2B receptor (unknown origin) expressed in HEK293 cells assessed as inhibition of glutamate-evoked current by whole-cell voltage-clamp method
Here, each record is paired with measured pIC50 data.
// scale note: pIC50 = -log10(conc_M); give the bare number

Some molecules with known pIC50 results, for comparison:
What value of pIC50 on Glutamate NMDA receptor; GRIN1/GRIN2B (Homo sapiens, UniProt Q05586+Q13224) does `C[C@@]12CCC[C@H]1[C@@H]1CC[C@@H]3C[C@H](OS(=O)(=O)O)CC[C@]3(C)[C@H]1CC2.c1ccncc1` have?
5.92

What is its pIC50 for Glutamate NMDA receptor; GRIN1/GRIN2B (Homo sapiens, UniProt Q05586+Q13224)? Entry: `CC[C@@H](C)[C@H]1CC[C@H]2[C@@H]3CC[C@@H]4C[C@H](OS(=O)(=O)O)CC[C@]4(C)[C@H]3CC[C@]12C.c1ccncc1`
7.05

I'm curious: which pIC50 was measured for `C[C@@H]1CC[C@@H]2[C@H]1CC[C@H]1[C@H]2CC[C@@H]2C[C@H](OS(=O)(=O)O)CC[C@@]21C.c1ccncc1` tested on Glutamate NMDA receptor; GRIN1/GRIN2B (Homo sapiens, UniProt Q05586+Q13224)?
6.05

For Glutamate NMDA receptor; GRIN1/GRIN2B (Homo sapiens, UniProt Q05586+Q13224), provide pIC50 of `C[C@]12CC[C@@H](OS(=O)(=O)O)C[C@H]1CC[C@@H]1[C@@H]2CC[C@]2(C)[C@@H](I)CC[C@@H]12.c1ccncc1` please.
6.22

Find the measured pIC50: item `CC[C@H]1CC[C@H]2[C@@H]3CC[C@@H]4C[C@H](OS(=O)(=O)O)CC[C@]4(C)[C@H]3CC[C@]12C.c1ccncc1` , target or system Glutamate NMDA receptor; GRIN1/GRIN2B (Homo sapiens, UniProt Q05586+Q13224).
6.40

Entry `C=C1C[C@H]2[C@@H]3CC[C@@H]4C[C@H](OS(=O)(=O)O)CC[C@]4(C)[C@H]3CC[C@]2(C)C1.c1ccncc1` , system Glutamate NMDA receptor; GRIN1/GRIN2B (Homo sapiens, UniProt Q05586+Q13224): what pIC50 was measured?
5.66

Form field: pIC50 recorded for `C[C@@]12CCC[C@H]1[C@@H]1CC[C@@H]3C[C@H](OS(=O)(=O)O)CC[C@@H]3[C@H]1CC2.c1ccncc1` with Glutamate NMDA receptor; GRIN1/GRIN2B (Homo sapiens, UniProt Q05586+Q13224) (enter value)
5.27

Give pIC50 (Glutamate NMDA receptor; GRIN1/GRIN2B (Homo sapiens, UniProt Q05586+Q13224)) of the following molecule: `C[C@H]1CC[C@H]2[C@@H]3CC[C@@H]4C[C@H](OS(=O)(=O)O)CC[C@]4(C)[C@H]3CC[C@]12C.c1ccncc1`
6.22

// lookup pIC50 | system=Glutamate NMDA receptor; GRIN1/GRIN2B (Homo sapiens, UniProt Q05586+Q13224) | key= `C/C=C1/CC[C@H]2[C@@H]3CC[C@@H]4C[C@H](OS(=O)(=O)O)CC[C@]4(C)[C@H]3CC[C@]12C.c1ccncc1`
6.10

API: value(readout=pIC50, system=Glutamate NMDA receptor; GRIN1/GRIN2B (Homo sapiens, UniProt Q05586+Q13224)) for record `C[C@@]12CCCC[C@H]1[C@@H]1CC[C@@H]3C[C@H](OS(=O)(=O)O)CC[C@]3(C)[C@H]1CC2.c1ccncc1`
5.96

Further cases:
Missing value: pIC50, Glutamate NMDA receptor; GRIN1/GRIN2B (Homo sapiens, UniProt Q05586+Q13224), entry `CC(C)[C@H]1CC[C@H]2[C@@H]3CC[C@@H]4C[C@H](OS(=O)(=O)O)CC[C@]4(C)[C@H]3CC[C@]12C.c1ccncc1` . Fill in?
6.77

Please provide the recorded pIC50 for `CC(=O)[C@H]1CC[C@H]2[C@@H]3CC[C@@H]4C[C@H](OS(=O)(=O)O)CC[C@]4(C)[C@H]3CC[C@]12C` , tested on Glutamate NMDA receptor; GRIN1/GRIN2B (Homo sapiens, UniProt Q05586+Q13224).
4.63
